Just for reference, ChEMBL document CHEMBL1268880 is where these values come from.

Target: UniProt:Q9Y5N1
Sequence (Q9Y5N1 whole entry): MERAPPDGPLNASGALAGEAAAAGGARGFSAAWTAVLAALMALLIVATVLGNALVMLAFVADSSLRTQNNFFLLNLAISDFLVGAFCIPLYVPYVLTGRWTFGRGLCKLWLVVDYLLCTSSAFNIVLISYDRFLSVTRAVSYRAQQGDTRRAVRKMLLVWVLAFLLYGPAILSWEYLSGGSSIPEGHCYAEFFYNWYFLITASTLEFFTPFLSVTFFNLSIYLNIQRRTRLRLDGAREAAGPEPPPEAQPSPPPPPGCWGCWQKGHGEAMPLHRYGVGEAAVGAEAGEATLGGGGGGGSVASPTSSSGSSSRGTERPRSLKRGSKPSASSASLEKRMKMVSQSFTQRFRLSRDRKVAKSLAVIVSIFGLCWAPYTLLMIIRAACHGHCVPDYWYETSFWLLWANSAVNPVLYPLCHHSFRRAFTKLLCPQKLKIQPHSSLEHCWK
Test: Antagonist activity against human histamine H3 receptor expressed in human HT1080 cells assessed as inhibition of (R)-alpha-methylhistamine-induced increase in intracellular calcium level by FLIPR assay
Could you mark each record true if its IC50 falls strictly under 0.02 µM, and false if it equals or exceeds it?

Worked cases, answers included:
CC1CC(O)(C#Cc2cccc3ccccc23)C(C)CN1C (racemic) :: true
C[C@@H]1CN(C)[C@@H](C)C[C@]1(O)C#Cc1cccc2ccccc12 :: false
CC1CN2CCCC2CC1(O)C#Cc1cccc2ccccc12 (racemic) :: true
CC1CC(O)(C#Cc2cccc3cccnc23)C(C)CN1C (racemic) :: false
CC1CC(O)(C#Cc2ccc3ccccc3c2)C(C)CN1C (racemic) :: false

is_below(IC50, 0.02 µM) for CC1CN2CCCC2CC1(O)CCc1cccc2ccccc12 (racemic) ? true

is_below(IC50, 0.02 µM) for CC1CC(O)(CCc2ccc3ccccc3c2)C(C)CN1C (racemic) ? true

is_below(IC50, 0.02 µM) for CC1CC(O)(C#Cc2cccc3ncccc23)C(C)CN1C (racemic) ? true

is_below(IC50, 0.02 µM) for CC(=O)OC1(C#Cc2cccc3ccccc23)CC(C)N(C)CC1C (racemic) ? false

is_below(IC50, 0.02 µM) for C[C@@H]1C[C@@](O)(CCc2cccc3ccccc23)[C@@H](C)CN1C ? true

is_below(IC50, 0.02 µM) for CC1CC(O)(CCc2cccc3ccccc23)C(C)CN1C (racemic) ? true

is_below(IC50, 0.02 µM) for C[C@@H]1C[C@@](O)(C#Cc2cccc3ccccc23)[C@@H](C)CN1C ? true
